The measurements presented in this section are drawn from ChEMBL document CHEMBL4513216.

tested on: Plasmodium berghei; test: Screen against P. berghei liver stage (PbLuc), transformed with Luciferase, at 10uM; type: functional, HepG2; settings: tested at 10 uM
About 8,600 (12%) of roughly 69,000 compounds showed an effect of 50% or more. For the sample, strong results were picked, then their nearest neighbours and some compounds at random.
Label class 1 when INHIBITION is strictly below 30%; otherwise label class 0.

COMPOUND: NCc1ccc(Oc2ccc(F)c(F)c2)cc1C(F)(F)F
CLASS_ASSIGNMENT: class 1
--
COMPOUND: Cc1nc2c(c(NCc3nc4ccccc4s3)n1)CCNCC2
CLASS_ASSIGNMENT: class 0

Hi there! Is INHIBITION for CC(C)c1noc(-c2ccnc(-n3cnc(C(=O)O)c3)c2)n1 below 30%, do you know? class 1

Lookup Cc1nc2c(c(NCc3ccc(-c4ccccn4)s3)n1)CCNCC2 class 0

Lookup CN(Cc1cc[nH]n1)C(=O)c1ccc2c(c1)nc(N1CC[C@H](O)C1)n2C class 1

Lookup COc1ccc(C(C)NCc2cscn2)cc1Cn1cccn1 (stereo unspecified) class 0

###

tested on: Plasmodium berghei; experiment: Screen against P. berghei liver stage (PbLuc), transformed with Luciferase, at 10uM; format: functional, HepG2; conditions: tested at 10 uM
The campaign covered roughly 69,000 compounds. About 8,600 (12%) showed an effect of 50% or more. Only a selection was taken, and strong results are over-represented in it overall.
METRIC_NAME: INHIBITION (%)
Give your result in % as a bare value.

MOLECULE: CN(C)c1ccc(C(CNS(=O)(=O)c2cccs2)N2CCCC2)cc1 (stereo not drawn)
INHIBITION, %: 67.6
//
MOLECULE: Cc1nc(C2CCCN(C(=O)c3ccoc3)C2)no1 (stereo not drawn)
INHIBITION, %: 11.6

// map Cn1cc(C2CCCN2C(=O)c2ccc(OCC3CC3)nc2)cn1 (stereo not drawn) to recorded INHIBITION (system: Plasmodium berghei) -27

Lookup Cc1cccc(N2CCN(C(=O)CCCC(=O)N(C)C)C(C)C2)n1 (stereo not drawn) 39.3

Lookup CC(C)n1c(C(=O)N2CCCC2)nc2c1CCN(C)C2 9.79

Lookup Cc1cc(CN(C)Cc2ccccc2N2CCCCC2)n[nH]1 20.2

###

tested on: Plasmodium berghei; assay: Screen against P. berghei liver stage (PbLuc), transformed with Luciferase, at 10uM; assay type: functional, HepG2; details: tested at 10 uM
In all, about 69,000 compounds went through this assay and about 8,600 (12%) showed an effect of 50% or more. The full list was thinned out, with strong results kept by preference.
METRIC_NAME: INHIBITION
Please report the result as a number followed by the unit.

Item under review: COCCN(CCOC)C(=O)c1cnn(C)c1-n1c(C)ccc1C . Reported INHIBITION? 42.1%

Lookup Cc1nn(C)c2nc(N(Cc3ccccc3)CC3CCCO3)sc12 (configuration not stated) 32.8%

Lookup O=C(c1cnccn1)N1C[C@@H]2[C@@H](C1)OCC(=O)N2CC1CCCC1 91.9%

Lookup CNC(=O)C1CN(C(=O)Cc2ccc(OC)cc2)Cc2cn(C)nc21 (configuration not stated) -6.51%

Lookup CC(C)N1CC(c2ccnc(Nc3nccs3)n2)C1 29.49%

Lookup O=C(CCc1nc2cc(Br)cnc2[nH]1)NCCN1CCOCC1 -7.28%

Lookup CC(=O)Nc1nc(C(=O)NCCOc2ccc(C)cc2)cs1 49.2%
